Biological target: AKR1C3 (Homo sapiens, UniProt P42330)
Construct: GST (own knowledge: pGEX vectors encode N-terminal GST); made in house; host or cells: E. coli BL21 DE3 Codon Plus RP, lysate
Sequence (P42330 whole entry): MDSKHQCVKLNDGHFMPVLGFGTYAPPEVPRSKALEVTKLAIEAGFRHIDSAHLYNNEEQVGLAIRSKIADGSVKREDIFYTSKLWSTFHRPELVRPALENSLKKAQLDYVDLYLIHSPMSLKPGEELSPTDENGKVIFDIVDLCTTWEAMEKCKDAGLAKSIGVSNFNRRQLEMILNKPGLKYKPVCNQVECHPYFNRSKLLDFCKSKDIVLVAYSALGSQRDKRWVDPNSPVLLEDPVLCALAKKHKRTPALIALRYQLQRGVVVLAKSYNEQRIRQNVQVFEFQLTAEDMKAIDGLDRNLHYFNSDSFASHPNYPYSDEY
Assay: AKR1C3 enzymatic inhibition assay (∆4-androstene-3,17-dione to testosterone)
Format: biochemical
Details: 10 µM compound; ∆4-androstene-3,17-dione reduction; triplicates, mean ± SD
Entries and their AKR1C3 Inhibition at 10 µM [%] values follow.
The reply should be a number in %, with the unit left off.

// known answers, use as guide
COc1cc(O)cc(O)c1C(=O)/C=C/c1ccc(Cl)cc1Cl; 33.3
COc1cc(O)cc(O)c1C(=O)/C=C/c1ccc(O)cc1; 24.6
O=C(/C=C/c1ccc(O)cc1)c1c(O)cc(O)cc1O; 40.6

Query :: Quick one: give measured AKR1C3 Inhibition at 10 µM [%] for O=C(/C=C/c1ccc(Cl)cc1)c1c(O)cc(O)cc1O
Result :: 70.8

Query :: Dear colleague, please send me the reported AKR1C3 Inhibition at 10 µM [%] for O=C(/C=C/c1ccc(F)cc1)c1c(O)cc(O)cc1O when you can.
Result :: 68.5
